# subject_of_test: HsEg5 (Homo sapiens)
# assay_procedure: Fluorescence detection of HsEg5 ATPase activity (ADP Quest, automated)
# Type: biochemical
Binarize IC50 at 1000 nM; below is Yes, at or above is No.

Confirm or reject: IC50 of CCC(c1nc2cc(Cl)ccc2c(=O)n1Nc1ccccc1)N(CCCN)C(=O)c1ccc(Cl)cc1 (stereo not shown) lies strictly below 1000 nM Yes

IC50 strictly < 1000 nM for this compound? CCC(c1nc2cc(Cl)ccc2c(=O)n1Nc1ccccc1)N(CCCN)C(=O)c1cccc(Cl)c1F (stereo not shown) Yes

# TODO verify IC50 < 1000 nM strictly for this compound: CC[C@H](c1nc2cc(Cl)ccc2c(=O)n1Nc1ccccc1)N(CCCN)S(=O)(=O)c1c(C)nn(C)c1C No

Determine if CCC(c1nc2cc(Cl)ccc2c(=O)n1Nc1ccccc1)N(CCCN)C(=O)c1c(F)ccc(C)c1F (stereo not shown) shows IC50 strictly lower than 1000 nM. No

Take the compound CCC(c1nc2cc(Cl)ccc2c(=O)n1Nc1ccccc1)N(CCCN)C(=O)c1ccc(C)c(F)c1 (stereo not shown) and say whether its IC50 is less than 1000 nM. No

API: query returns whether the compound falls strictly under 1000 nM in IC50. Query: CCC(c1nc2cc(Cl)ccc2c(=O)n1Nc1ccccc1F)N(CCCN)C(=O)c1ccc(C)cc1 (stereo not shown) No

Quick check: IC50 of CCC(c1nc2cc(Cl)ccc2c(=O)n1OCc1ccccc1)N(CCCN)C(=O)c1ccc(C)cc1 (stereo not shown) under 1000 nM? No

---

For each record, write down the corresponding pIC50.
# subject_of_test: UniProt P52732
# assay_procedure: Fluorescence detection of HsEg5 ATPase activity (ADP Quest, automated)
# Assay type: biochemical
The value called pIC50 is obtained by taking minus log10 of the concentration in mol/L.

Which pIC50 value belongs to CC(C)(C)CC(c1nc2cc(Cl)ccc2c(=O)n1Nc1ccccc1)N(CCCN)C(=O)c1ccc(Br)cc1 (stereo not shown) ? 5.43

pIC50 lookup needed for CCC(c1nc2cc(Cl)ccc2c(=O)n1Nc1ccccc1)N(CCN)C(=O)c1ccc(C)c(F)c1F (stereo not shown) , thanks. 5.39

I have this compound here, CCC(c1nc2cc(Cl)ccc2c(=O)n1Nc1ccccc1)N(CCN)C(=O)c1ccc(F)c(C)c1 (stereo not shown) , and I need its recorded pIC50. 5.48

Look at this compound and give its reported pIC50. NCCCN(C(=O)c1ccc(Cl)c(Cl)c1)C(Cc1ccc(O)cc1)c1nc2cc(Cl)ccc2c(=O)n1Nc1ccccc1 (stereo not shown) 5.62

---

# subject_of_test: HsEg5 (Homo sapiens)
# Sequence (P52732 18-359 limits assumed): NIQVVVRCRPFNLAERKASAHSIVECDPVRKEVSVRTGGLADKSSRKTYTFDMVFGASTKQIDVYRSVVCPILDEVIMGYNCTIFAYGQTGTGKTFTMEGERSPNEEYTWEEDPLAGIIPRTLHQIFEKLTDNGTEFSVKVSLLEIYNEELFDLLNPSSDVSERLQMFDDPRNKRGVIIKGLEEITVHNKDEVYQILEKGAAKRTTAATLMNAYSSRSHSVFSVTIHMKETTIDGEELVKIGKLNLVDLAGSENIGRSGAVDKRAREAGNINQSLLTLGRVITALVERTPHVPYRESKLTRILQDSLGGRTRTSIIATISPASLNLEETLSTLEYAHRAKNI
# assay_procedure: Luminescent detection of HsEg5 ATPase activity (Kinase-Glo Plus)
# Type: biochemical
# Procedure: Purified HsEg5 motor fragment was activated by mixture with preformed MT polymer (Cytoskeleton, Denver, Colo.) at room temperature for 20 minutes. MT activated ATPase activity was measured using Kinase-Glo® Plus Luminescent Kinase Assay (Promega, Madison, Wis.). […] Eg5 IC50 data was generated using both fluorescence and Luminescence detection assays as described above. […]
metric: IC50 (nM)
Report the figure in nM without appending any unit label.

// returns reported IC50 for input C#CC[C@H](c1nc2cc(Cl)ccc2c(=O)n1Nc1ccccc1)N(CCCN)C(=O)c1cc(F)cc(F)c1F 160

// lookup IC50 for C#CC[C@H](c1nc2cc(Cl)ccc2c(=O)n1Nc1ccccc1)N(CCCN)C(=O)c1ccc(C)c(F)c1F 130

Look up IC50 for this compound: C#CC[C@H](c1nc2cc(Cl)ccc2c(=O)n1Nc1ccccc1)N(CCCN)C(=O)c1c(F)cc(Cl)cc1F 550

// query IC50 value for entry C#CC[C@H](c1nc2cccnc2c(=O)n1Nc1ccccc1)N(CCCN)C(=O)c1cccc(Cl)c1F 6600

Please look up its IC50: C#CC[C@H](c1nc2cc(Cl)ccc2c(=O)n1Nc1ccccc1)N(CCCN)C(=O)c1c(F)c(F)cc(F)c1F 160

What does the record list as IC50 for C#CC[C@H](c1nc2cc(Cl)ccc2c(=O)n1Nc1ccccc1)N(CCCN)C(=O)c1cc(F)cc(F)c1 ? 90

---

Record form. Attribute: GI50. Fill in for each entry.
# System: A549
# assay_procedure: MTS cell viability assay
# Assay type: cell-based
# test_context: Homo sapiens, A549, 72 h, A549 non small cell lung, 72 hours; read-out: MTS NCI A549 GI50
Respond with the bare value in µM.

Form field - read-out: GI50; system: A549; submitted item: Cc1ccc(C(=O)N(CCCN)C(Cc2cccs2)c2nc3cc(Cl)ccc3c(=O)n2Nc2ccccc2)cc1 (stereo not drawn) 4.69

Which measured GI50 belongs to NCCCN(C(=O)c1cccc(F)c1F)C(Cc1cccs1)c1nc2cc(Cl)ccc2c(=O)n1Nc1ccccc1 (stereo not drawn) , tested on A549? 3.77

Field: GI50 (A549). Entry: NCCCN(C(=O)c1ccc(F)c(F)c1)C(Cc1cccs1)c1nc2cc(Cl)ccc2c(=O)n1Nc1ccccc1 (stereo not drawn) 4.29

Find GI50 (A549) for the entry CCC(c1nc2cc(Cl)ccc2c(=O)n1Nc1ccccc1)N(CCCN)C(=O)c1ccc(C)c(F)c1F (stereo not drawn) 1.93

Field: GI50 (A549). Entry: CC(C)C(c1nc2cc(Cl)ccc2c(=O)n1Nc1ccccc1)N(CCCN)C(=O)c1cccc(Br)c1 (stereo not drawn) 13.8

Lookup: GI50 / A549 / NCCCN(C(=O)c1ccc(F)c(Cl)c1)C(Cc1cccs1)c1nc2cc(Cl)ccc2c(=O)n1Nc1ccccc1 (stereo not drawn) 5.26

What value of GI50 on A549 does CC(C)CC(c1nc2cc(Cl)ccc2c(=O)n1Nc1ccccc1)N(CCCN)C(=O)c1ccc(F)c(Cl)c1 (stereo not drawn) have? 5.02

Enter reported GI50 observed with A549 for CCC(c1nc2cc(Cl)ccc2c(=O)n1Nc1ccccc1)N(CCCN)C(=O)c1c(F)ccc(C)c1F (stereo not drawn) 2.56

For A549, provide GI50 of CCC(c1nc2cc(Cl)ccc2c(=O)n1Nc1ccccc1)N(CCCN)C(=O)c1ccc(Cl)c(Cl)c1 (stereo not drawn) please. 1.87

---

# subject_of_test: HsEg5 (Homo sapiens, UniProt P52732)
# assay_procedure: Fluorescence detection of HsEg5 ATPase activity (ADP Quest, automated)
# Assay type: biochemical
# Method: Purified HsEg5 motor fragment was activated by mixture with preformed MT polymer (Cytoskeleton, Denver, Colo.) at room temperature for 20 minutes. MT activated ATPase activity was measured using ADP Quest (DiscoverX, Fremont, Calif.) in which a coupled-enzyme assay can translate accumulation of ADP into detectable resorufin signal (FIG. 1A). Fluorescence was measured at λEx=535 nm and λEm=590 nm on a Wallac Victor 2 plate reader (Perkin-Elmer Life Sciences, Boston, Mass.). […]
Answer each item with its documented pIC50.
Scale explanation: pIC50 corresponds to minus log10 of a concentration expressed in moles per litre.

Provide the documented pIC50 with HsEg5 (Homo sapiens, UniProt P52732) as the system for CC(C)C(c1nc2cc(Cl)ccc2c(=O)n1Nc1ccccc1)N(CCCN)C(=O)c1cccc(F)c1F (stereo not drawn) 6.32

Return pIC50 measured with HsEg5 (Homo sapiens, UniProt P52732) given this molecule: CCC(c1nc2cc(Cl)ccc2c(=O)n1Nc1ccccc1)N(CCN)C(=O)c1ccc(Cl)cc1 (stereo not drawn) 5.40

Form entry - test system: HsEg5 (Homo sapiens, UniProt P52732); read-out: pIC50; molecule: CCC(c1nc2cc(Cl)ccc2c(=O)n1Nc1ccccc1)N(CCN)C(=O)c1cccc(Cl)c1F (stereo not drawn) 5.84

Recorded pIC50 for CC(C)C(c1nc2cc(Cl)ccc2c(=O)n1Nc1ccccc1)N(CCCN)C(=O)c1cccc(Br)c1 (stereo not drawn) with HsEg5 (Homo sapiens, UniProt P52732), please? 5.73

Lab note: need pIC50 with HsEg5 (Homo sapiens, UniProt P52732) for entry CCC(c1nc2cc(Cl)ccc2c(=O)n1Nc1ccccc1)N(CCCN)C(=O)c1ccc(C)cc1 (stereo not drawn) , please look it up. 6.15

So what pIC50 did CCC(c1nc2cc(Cl)ccc2c(=O)n1Nc1ccccc1)N(CCCN)C(=O)c1ccc(I)cc1 (stereo not drawn) get with HsEg5 (Homo sapiens, UniProt P52732)? 5.78

What is its pIC50 for HsEg5 (Homo sapiens, UniProt P52732)? Entry: CC(C)CC(c1nc2cc(Cl)ccc2c(=O)n1Nc1ccccc1)N(CCCN)C(=O)c1ccc(F)c(Cl)c1 (stereo not drawn) 5.78

Kindly state the measured pIC50 obtained for CCC(c1nc2cc(Cl)ccc2c(=O)n1Nc1ccccc1)N(CCCN)Cc1ccc(C)cc1 (stereo not drawn) with HsEg5 (Homo sapiens, UniProt P52732). 5.08

What pIC50 appears in the records for this molecule with HsEg5 (Homo sapiens, UniProt P52732)? CC(C)CC(c1nc2cc(Cl)ccc2c(=O)n1Nc1ccccc1)N(CCCN)C(=O)c1cc(Cl)cc(Cl)c1 (stereo not drawn) 5.73

Lab note: need pIC50 with HsEg5 (Homo sapiens, UniProt P52732) for entry C#CCC(c1nc2cc(Cl)ccc2c(=O)n1Nc1ccccc1)N(CCCN)C(=O)c1cc(F)c(Cl)cc1F (stereo not drawn) , please look it up. 6.86

Lab note: need pIC50 with HsEg5 (Homo sapiens, UniProt P52732) for entry CCC(c1nc2cc(Cl)ccc2c(=O)n1Nc1ccccc1)N(CCCN)C(=O)c1ccc([N+](=O)[O-])cc1 (stereo not drawn) , please look it up. 5.98

Please tell me: pIC50 of CCC(c1nc2cc(Cl)ccc2c(=O)n1Nc1cccc(F)c1)N(CCCN)C(=O)c1ccc(C)cc1 (stereo not drawn) , system HsEg5 (Homo sapiens, UniProt P52732)? 5.98

Hi! What's the reported pIC50 for CCC(c1nc2cc(Cl)ccc2c(=O)n1Nc1ccccc1)N(CCCN)C(=O)c1cccc(F)c1F (stereo not drawn) on HsEg5 (Homo sapiens, UniProt P52732)? 6.25

Test system HsEg5 (Homo sapiens, UniProt P52732); read-out pIC50; what value for NCCCN(C(=O)c1cccc(F)c1F)C(Cc1cccs1)c1nc2cc(Cl)ccc2c(=O)n1Nc1ccccc1 (stereo not drawn) ? 5.93

# get_value(readout= pIC50, system= HsEg5 (Homo sapiens, UniProt P52732)) for NCCCN(C(=O)c1ccc(F)c(Cl)c1)C(Cc1cccs1)c1nc2cc(Cl)ccc2c(=O)n1Nc1ccccc1 (stereo not drawn) 5.58

For the record CCC(c1nc2cc(Cl)ccc2c(=O)n1Nc1ccccc1)N(CCCN)C(=O)c1ccc(-n2cccn2)cc1 (stereo not drawn) , what value of pIC50 is listed for HsEg5 (Homo sapiens, UniProt P52732)? 5.99

Lab note: need pIC50 for CCC(c1nc2cc(Cl)ccc2c(=O)n1Nc1ccccc1)N(CCCN)C(=O)c1ccc(F)cc1 (stereo not drawn) on HsEg5 (Homo sapiens, UniProt P52732), anyone have it? 5.67

Form entry - test system: HsEg5 (Homo sapiens, UniProt P52732); read-out: pIC50; molecule: CCC(c1nc2cc(Cl)ccc2c(=O)n1Nc1ccccc1)N(CCN)C(=O)c1ccc(C)cc1 (stereo not drawn) 5.41

Test system HsEg5 (Homo sapiens, UniProt P52732); read-out pIC50; what value for CCC(c1nc2cc(Cl)ccc2c(=O)n1Nc1ccccc1)N(CCN)C(=O)c1c(F)ccc(C)c1F (stereo not drawn) ? 5.43

What measured pIC50 is associated with NCCCN(C(=O)c1ccc(F)c(F)c1F)C(Cc1ccc(O)cc1)c1nc2cc(Cl)ccc2c(=O)n1Nc1ccccc1 (stereo not drawn) on HsEg5 (Homo sapiens, UniProt P52732)? 5.38

Any idea what pIC50 came out for CSCCC(c1nc2cc(Cl)ccc2c(=O)n1Nc1ccccc1)N(CCCN)C(=O)c1ccc(C)c(F)c1F (stereo not drawn) on HsEg5 (Homo sapiens, UniProt P52732)? 5.52

Form: Entry = CCCCC(c1nc2cc(Cl)ccc2c(=O)n1Nc1ccccc1)N(CCCN)C(=O)c1ccc(C)cc1 (stereo not drawn) | System = HsEg5 (Homo sapiens, UniProt P52732) | pIC50 = ____ 4.28

Query pIC50 on HsEg5 (Homo sapiens, UniProt P52732) for CC(C)CC(c1nc2cc(Cl)ccc2c(=O)n1Nc1ccccc1)N(CCCN)C(=O)c1ccc(F)c(F)c1 (stereo not drawn) 5.71

Reported pIC50 for HsEg5 (Homo sapiens, UniProt P52732), given CC(c1nc2cc(Cl)ccc2c(=O)n1Nc1ccccc1)N(CCCN)C(=O)c1ccc(Cl)c(Cl)c1 (stereo not drawn) ? 5.47

Checklist item: pIC50 tested on HsEg5 (Homo sapiens, UniProt P52732), entry CCC(c1nc2cc(Cl)ccc2c(=O)n1Nc1ccccc1)N(CCCN)C(=O)c1ccc(C)c(F)c1F (stereo not drawn) , value? 5.90

Request - read-out pIC50 | tested on HsEg5 (Homo sapiens, UniProt P52732) | molecule C#CC[C@H](c1nc2cc(Cl)ccc2c(=O)n1Nc1ccccc1)N(CCCN)C(=O)c1cccc(Cl)c1F 7.55

Could you share what pIC50 was measured for CC(C)C(c1nc2cc(Cl)ccc2c(=O)n1Nc1ccccc1)N(CCCN)C(=O)c1ccc(F)cc1 (stereo not drawn) , tested on HsEg5 (Homo sapiens, UniProt P52732)? 6.08

State its pIC50 on HsEg5 (Homo sapiens, UniProt P52732): Cc1ccc(C(=O)N(CCCN)C(Cc2cccs2)c2nc3cc(Cl)ccc3c(=O)n2Nc2ccccc2)cc1 (stereo not drawn) 5.46

Test system HsEg5 (Homo sapiens, UniProt P52732); read-out pIC50; what value for CCC(c1nc2cc(Cl)ccc2c(=O)n1Nc1ccccc1)N(CCCN)C(=O)c1cccc(Br)c1 (stereo not drawn) ? 6.00

Entry NCCCN(C(=O)c1ccc(Br)cc1)C(Cc1cccs1)c1nc2cc(Cl)ccc2c(=O)n1Nc1ccccc1 (stereo not drawn) , system HsEg5 (Homo sapiens, UniProt P52732): what pIC50 was measured? 5.59
